System: OCI-AML2 (Acute Myeloid Leukemia)
PROTOCOL SUMMARY: combination Emax (second highest fraction inhibited in the dose matrix, 72 h); higher = more inhibition; extreme values may be limits of the assay
REPORTED ENDPOINT: combination Emax
Answers are plain numbers.

- COMPOUND: "CC(=O)c1c(C)c2cnc(Nc3ccc(N4CCNCC4)cn3)nc2n(C2CCCC2)c1=O [Palbociclib] + Cn1cnc2c(F)c(Nc3ccc(Br)cc3Cl)c(C(=O)NOCCO)cc21 [Selumetinib] (first compound max 10 µM, 7x7, partner max 10 µM)"
  REPORTED ENDPOINT: "combination Emax"
  NUMERIC READOUT: 1

For the next question, use this compound.
Asked: Lab note: need combination Emax with OCI-AML2 (Acute Myeloid Leukemia) for entry CN(C)CCCOc1ccc(-c2ccc3ncc4c(c3c2)n(C2CCOCC2)c(=O)n4C)cn1 [AZD0156] + CCN(CCO)CCCOc1ccc2c(Nc3cc(CC(=O)Nc4cccc(F)c4)[nH]n3)ncnc2c1 [AZD2811] (first compound max 1 µM, 7x7, partner max 1 µM) , please look it up.
Given back: 0.773

----------
Tested on: SW1088 (Low Grade Glioma)
PROTOCOL SUMMARY: combination Emax (second highest fraction inhibited in the dose matrix, 72 h); higher = more inhibition; extreme values may be limits of the assay
REPORTED ENDPOINT: combination Emax
One number for each entry.

Worked examples follow.
- MOLECULE: "Cc1nc(Nc2ncc(C(=O)Nc3c(C)cccc3Cl)s2)cc(N2CCN(CCO)CC2)n1 [Dasatinib] + CC(=O)Nc1cccc(-n2c(=O)n(C3CC3)c(=O)c3c(Nc4ccc(I)cc4F)n(C)c(=O)c(C)c32)c1 [Trametinib] (first compound max 2 µM, 7x7, partner max 1 µM)"
  combination Emax: 0.666
- MOLECULE: "CC(=O)c1c(C)c2cnc(Nc3ccc(N4CCNCC4)cn3)nc2n(C2CCCC2)c1=O [Palbociclib] + CC1(C)CCC(CN2CCN(c3ccc(C(=O)NS(=O)(=O)c4ccc(NCC5CCOCC5)c([N+](=O)[O-])c4)c(Oc4cnc5[nH]ccc5c4)c3)CC2)=C(c2ccc(Cl)cc2)C1 [Venetoclax] (first compound max 10 µM, 7x7, partner max 1 µM)"
  combination Emax: 0.429

For the next question, use this molecule.
Asked: Please give the measured combination Emax for this molecule: CCN(CCO)CCCOc1ccc2c(Nc3cc(CC(=O)Nc4cccc(F)c4)[nH]n3)ncnc2c1 [AZD2811] + C[C@@H]1COCCN1C2=NC(=NC(=C2)C3(CC3)[S@](=N)(=O)C)C4=C5C=CNC5=NC=C4 [AZD6738] (first compound max 1 µM, 7x7, partner max 10 µM)
Given back: 0.566

----------
Test system: NCI-H1299 (Non-Small Cell Lung Carcinoma)
PROTOCOL SUMMARY: combination Emax (second highest fraction inhibited in the dose matrix, 72 h); higher = more inhibition; extreme values may be limits of the assay
Hi there, I'd appreciate the recorded combination Emax for every entry that follows.

- COMPOUND: "CC1(C)CCC(CN2CCN(c3ccc(C(=O)NS(=O)(=O)c4ccc(NCC5CCOCC5)c([N+](=O)[O-])c4)c(Oc4cnc5[nH]ccc5c4)c3)CC2)=C(c2ccc(Cl)cc2)C1 [Venetoclax] + C[C@@H](Nc1cc(F)cc(F)c1)c1cc(C(=O)N(C)C)cc2c(=O)cc(N3CCOCC3)oc12 [AZD8186] (first compound max 1 µM, 7x7, partner max 3 µM)"
  combination Emax: 0.149

Give one value of combination Emax per listed compound.
1. C[C@@H](Oc1cc(-c2cnn(C3CCNCC3)c2)cnc1N)c1c(Cl)ccc(F)c1Cl [Crizotinib] + Cn1cnc2c(F)c(Nc3ccc(Br)cc3Cl)c(C(=O)NOCCO)cc21 [Selumetinib] (first compound max 10 µM, 7x7, partner max 10 µM)
2. CC1(C)CCC(CN2CCN(c3ccc(C(=O)NS(=O)(=O)c4ccc(NCC5CCOCC5)c([N+](=O)[O-])c4)c(Oc4cnc5[nH]ccc5c4)c3)CC2)=C(c2ccc(Cl)cc2)C1 [Venetoclax] + C=CCn1c(=O)c2cnc(Nc3ccc(N4CCN(C)CC4)cc3)nc2n1-c1cccc(C(C)(C)O)n1 [AZD1775] (first compound max 1 µM, partner max 1 µM)
3. Cc1cc2ncnn2cc1Nc1ncc2c(n1)n(C1CCOCC1)c(=O)n2C [AZD7648] + COc1cc([C@@H]2c3cc4c(cc3[C@@H](O[C@@H]3O[C@@H]5CO[C@@H](C)O[C@H]5[C@H](O)[C@H]3O)[C@H]3COC(=O)[C@H]23)OCO4)cc(OC)c1O [Etoposide] (first compound max 10 µM, 7x7, partner max 10 µM)
4. CN(CCO)CC[C@H](CSc1ccccc1)Nc1ccc(S(=O)(=O)NC(=O)c2ccc(N3CCC([C@@H](O)c4ccccc4-c4ccc(Cl)cc4)CC3)cc2)cc1S(=O)(=O)C(F)(F)F [AZD4320] + C[C@@H](Nc1cc(F)cc(F)c1)c1cc(C(=O)N(C)C)cc2c(=O)cc(N3CCOCC3)oc12 [AZD8186] (first compound max 1 µM, 7x7, partner max 3 µM)
5. CC1(C)CCC(CN2CCN(c3ccc(C(=O)NS(=O)(=O)c4ccc(NCC5CCOCC5)c([N+](=O)[O-])c4)c(Oc4cnc5[nH]ccc5c4)c3)CC2)=C(c2ccc(Cl)cc2)C1 [Venetoclax] + C[C@@H]1COCCN1C2=NC(=NC(=C2)C3(CC3)[S@](=N)(=O)C)C4=C5C=CNC5=NC=C4 [AZD6738] (first compound max 1 µM, 7x7, partner max 10 µM)

Given back:
1. 0.574
2. 0.641
3. 0.649
4. 0.297
5. 0.534

----------
Tested on: RH-1 (Ewing's Sarcoma)
PROTOCOL SUMMARY: combination Emax (second highest fraction inhibited in the dose matrix, 72 h); higher = more inhibition; extreme values may be limits of the assay
Hi there, I'd appreciate the recorded combination Emax for every entry that follows.
Numbers only.

Worked examples follow.
- MOLECULE: "CC1(C)CCC(CN2CCN(c3ccc(C(=O)NS(=O)(=O)c4ccc(NCC5CCOCC5)c([N+](=O)[O-])c4)c(Oc4cnc5[nH]ccc5c4)c3)CC2)=C(c2ccc(Cl)cc2)C1 [Venetoclax] + C[C@@H](Nc1cc(F)cc(F)c1)c1cc(C(=O)N(C)C)cc2c(=O)cc(N3CCOCC3)oc12 [AZD8186] (first compound max 1 µM, 7x7, partner max 3 µM)"
  combination Emax: 0.0877
- MOLECULE: "CCc1c2c(nc3ccc(O)cc13)-c1cc3c(c(=O)n1C2)COC(=O)[C@]3(O)CC [SN-38] + CN(C)CCCOc1ccc(-c2ccc3ncc4c(c3c2)n(C2CCOCC2)c(=O)n4C)cn1 [AZD0156] (first compound max 0.3 µM, 7x7, partner max 1 µM)"
  combination Emax: 1
- MOLECULE: "CC1(C)CCC(CN2CCN(c3ccc(C(=O)NS(=O)(=O)c4ccc(NCC5CCOCC5)c([N+](=O)[O-])c4)c(Oc4cnc5[nH]ccc5c4)c3)CC2)=C(c2ccc(Cl)cc2)C1 [Venetoclax] + C[C@@H]1COCCN1C2=NC(=NC(=C2)C3(CC3)[S@](=N)(=O)C)C4=C5C=CNC5=NC=C4 [AZD6738] (first compound max 1 µM, 7x7, partner max 10 µM)"
  combination Emax: 0.959

Asked: Please give the measured combination Emax for this molecule: NC1(C(=O)N[C@@H](CCO)c2ccc(Cl)cc2)CCN(c2ncnc3[nH]ccc23)CC1 [Capivasertib] + CC(=O)c1c(C)c2cnc(Nc3ccc(N4CCNCC4)cn3)nc2n(C2CCCC2)c1=O [Palbociclib] (first compound max 10 µM, 7x7, partner max 10 µM)
Given back: 0.391

----------
System: DSH1 (Bladder Carcinoma);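 further: after 72 h of two-drug dosing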
PROTOCOL SUMMARY: Bliss excess, mean over the matrix (fraction); higher = more synergy
Hi there, I'd appreciate the recorded Bliss excess for every entry that follows.
One number for each entry.

Worked examples follow.
- COMPOUND: "Cc1c2c(nn1C)CSCc1cc(n(C)n1)CSc1cc(c3ccccc3c1)OCCCc1c(C(=O)O)n(C)c3c-2c(Cl)ccc13 [AZD5991] + CN(C)CCCOc1ccc(-c2ccc3ncc4c(c3c2)n(C2CCOCC2)c(=O)n4C)cn1 [AZD0156] (first compound max 1 µM, 7x7, partner max 1 µM)"
  NUMERIC READOUT: -0.013
- COMPOUND: "COc1cccc(OCCCN)c1-c1cc(Nc2cnc(C#N)cn2)n[nH]1 [Prexasertib] + CCc1c2c(nc3ccc(O)cc13)-c1cc3c(c(=O)n1C2)COC(=O)[C@]3(O)CC [SN-38] (first compound max 1 µM, 7x7, partner max 0.3 µM)"
  NUMERIC READOUT: 0.0128

For the next question, use this compound.
Asked: Please give the measured Bliss excess for this compound: CN(CCO)CC[C@H](CSc1ccccc1)Nc1ccc(S(=O)(=O)NC(=O)c2ccc(N3CCC([C@@H](O)c4ccccc4-c4ccc(Cl)cc4)CC3)cc2)cc1S(=O)(=O)C(F)(F)F [AZD4320] + Cc1cc2ncnn2cc1Nc1ncc2c(n1)n(C1CCOCC1)c(=O)n2C [AZD7648] (first compound max 1 µM, 7x7, partner max 10 µM)
Given back: -0.0266
